Data origin, for the record: PubChem BioAssay (NCI)

Below is a list of entries, each paired with its recorded TGI value.
Tested on: COLO 205 colon
assay name: NCI tumour cell line growth inhibition, 48 h

Worked set:
COc1nc(NC2OC(COC(C)=O)C(OC(C)=O)C(OC(C)=O)C2OC(C)=O)c(-c2csc(N)n2)c(=O)n1C (stereo not given)
> 100 µM
CO[C@@]12[C@@H]3NC3CN1C1=C(C(=O)C(N)=C(C)C1=O)[C@@H]2COC(N)=O (stereo not given in full)
2.3 µM

What TGI value was documented for this compound, Cc1ccccc1OC(C)C(=O)NN1C(=O)CC(=O)N(c2ccccc2)C1=S (stereo not given) ?
> 100 µM

What do we get for COC(=O)C1=C(O)C(C(=O)OC)[C@]2(O)[C@H](C(=O)OC)[C@H]1C[C@@H](c1ccc([N+](=O)[O-])cc1)[C@H]2C(=O)OC (stereo not given in full) ?
65.2 µM

What do we get for `O=C1c2ccccc2-c2[nH]c3cn[nH]c(=O)c3c21` ?
> 100 µM

What do we get for `CCOC(=O)C(=O)C(=O)NN(C)C1=NCCN1` ?
> 100 µM

What do we get for `COc1ccc(CCN2CCc3c(C)c(C#N)c4nc5ccccc5n4c32)cc1OC` ?
89.8 µM

What do we get for `O=[N+]([O-])c1cccnc1-n1cnc2ccccc21` ?
> 100 µM

What do we get for `O=C(NNCc1ccc(Cl)cc1)Nc1cccc2ccccc12` ?
> 100 µM

###

Below is a list of entries, each paired with its recorded TGI value.
Tested on: HCC-2998 colon
assay name: NCI tumour cell line growth inhibition, 48 h

What TGI value was documented for this molecule, COc1ccc(OC)c2c3c(ccc12)C(c1ccccc1)OC3=O (centres undefined) ?
> 100 µM

What do we get for `CCCCCCCCCCCCOP(N)(=O)OCCCCCCCCCCCC` ?
> 100 µM

What do we get for CSC1=NCC2(S1)c1ccccc1N(C(=O)OC(C)(C)C)C2N1CCCCC1 (centres undefined) ?
> 100 µM

What do we get for COc1ccc(CCN=C2CCC(C(=O)NCCc3ccc(OC)c(OC)c3)N2)cc1OC (centres undefined) ?
> 100 µM

###

Below is a list of entries, each paired with its recorded TGI value.
Test system: SK-OV-3 ovarian
assay name: NCI tumour cell line growth inhibition, 48 h

O=C(Nc1cccc(NC(=O)c2cc(=O)c3ccccc3o2)n1)c1cc(=O)c2ccccc2o1
> 100 µM
C/C(CC(=O)N(C(C)C)C(C)C)=N\NC(=O)c1ccncc1
> 100 µM
Cc1nc(N)nc2ccccc12
> 100 µM
CSc1ccc(C(=O)C(=O)c2ccc(SC)s2)s1
> 10 µM
CC1=C(C(=O)Nc2ccc(Cl)c(Cl)c2)C(c2ccccc2O)NC(=O)N1 (stereo not given)
> 50 µM

What TGI value was documented for this compound, `COC(OC)c1cc2c(cc1C(=O)[C@@]13CCC[C@@H]1NC(=O)O3)OCO2` ?
> 100 µM

What do we get for `O=C(c1ccco1)N(C(=S)OC12CC3CC(CC(C3)C1)C2)c1ccccc1` ?
> 100 µM

What do we get for `Oc1ccc(Cl)cc1Cc1cc(Cl)ccc1O` ?
10.9 µM

What do we get for `C=C1C(=O)O[C@H]2[C@H]3O[C@@H](C[C@@H]12)[C@](C)(O)CC[C@@H]1O[C@@]1(C)CCC[C@H]3C` ?
> 100 µM

What do we get for C#CCN(Cc1ccc2nc(N)[nH]c(=O)c2c1)c1ccc(C(=O)NC(CCC(=O)O)C(=O)O)cc1 (stereo not given) ?
> 100 µM

###

Below is a list of entries, each paired with its recorded TGI value.
Tested on: SNB-75 CNS
assay name: NCI tumour cell line growth inhibition, 48 h
Field format: number, assumed µM, no unit text.

Worked set:
Cc1ccc(/C(O)=C/c2nc3ccc([N+](=O)[O-])cc3nc2/C=C(\O)c2ccc(C)cc2)cc1
36.8
OCNCCNc1nc2ccccc2c2[nH]c3ccccc3c12
11.6
CO[C@]1(CN2CCN3CCCC[C@@H]3C2)/C=C/C[C@H](C)[C@@H](C)S(=O)(=O)NC(=O)c2ccc3c(c2)N(C[C@@H]2CC[C@H]21)C[C@@]1(CCCc2cc(Cl)ccc21)CO3
2.04

// next entry
Hi! What's the reported TGI for O=C1CC(n2cccc2)c2c(Br)sc(Br)c21 (centres undefined) on SNB-75 CNS?
35.1

###

Tested on: UACC-257 melanoma
assay name: NCI tumour cell line growth inhibition, 48 h
metric: TGI

Worked set:
N=C1C=C(N)C(=O)c2[nH]c(=O)ccc21
16.6 µM
N/C(=N\Nc1ccc(S(N)(=O)=O)cc1)c1cnccn1
> 100 µM
Cc1cc(Cl)cc2c1NC(=O)C2=O (tested in a mixture with another compound)
51.1 µM
COC(=O)CC(C(C(C)=O)C(=O)OCc1ccccc1)N1C(=O)OCC1c1ccccc1 (stereo unspecified)
> 100 µM
CCOC(=O)C(NC(=O)c1[nH]cnc1/N=N/N(C)C)C(C)C (stereo unspecified)
> 100 µM
COc1ccccc1NC(=O)C(CC(C(=O)Nc1ccccc1OC)/C(C)=N/Nc1ccc([N+](=O)[O-])cc1[N+](=O)[O-])/C(C)=N/Nc1ccc([N+](=O)[O-])cc1[N+](=O)[O-] (stereo unspecified)
> 100 µM

What TGI value was documented for this compound, FC1OC2OC1C(OCc1ccccc1)C(OCc1ccccc1)C2OCc1ccccc1 (stereo unspecified) ?
> 100 µM

What do we get for CC(=O)/C(=C\c1ccc(Cl)c(Cl)c1)C(=O)C(C)CN(C)C (stereo unspecified) ?
23.7 µM

###

Test system: SW-620 colon
assay name: NCI tumour cell line growth inhibition, 48 h
Below is a list of entries, each paired with its recorded TGI value.

CN(C)c1ccc(/C=C2\N=C(c3ccccc3)N(c3ccc4c(c3)Sc3cc(N5C(=O)/C(=C/c6ccc(N(C)C)cc6)N=C5c5ccccc5)ccc3N4)C2=O)cc1
> 100 µM
CCOC(=O)C1COc2cc(-c3cc(=O)c4ccccc4o3)ccc2O1 (stereo not drawn)
> 100 µM
CC1(C2CCC3(C)OC3C2)CO1 (stereo not drawn)
> 100 µM
Cc1csc(NC(=NCCN2CCOCC2)Nc2nc(C)cs2)n1
> 100 µM
COc1ccc(S(=O)(=O)N(C)CC(=O)O)cc1
> 100 µM
O=C1CC(n2cccc2)c2c(Br)sc(Br)c21 (stereo not drawn)
41.3 µM
COC(=O)c1c(-c2ccc(Cl)cc2)cc2c3ccccc3n(C)c2c1C(=O)OC
> 100 µM
S=C(NCc1ccccc1)N/N=C/c1ccccn1
> 61.4 µM
CC(C)C(=O)Oc1cc2c(=O)oc3c(OC(=O)C(C)C)c(OC(=O)C(C)C)cc4c(=O)oc(c1OC(=O)C(C)C)c2c34
> 100 µM
CCCCCCCCCCCCCc1nn[nH]n1
41.4 µM

What TGI value was documented for this compound, `COc1ccc(CCN2CCc3c(C)c(C#N)c4nc5ccccc5n4c32)cc1OC` ?
97.3 µM

What do we get for `O=C(Cc1csc2nc(-c3ccc(Br)cc3)cn12)N/N=C/c1ccc(O)cc1` ?
> 100 µM

What do we get for `N/C(=N\Nc1ccc(S(N)(=O)=O)cc1)c1cnccn1` ?
> 100 µM

What do we get for `CCOc1cc(-c2ccc[nH]2)[nH]c1/C=C1\N=C(C)C(C(=O)OC)=C1C` ?
1.55 µM

What do we get for CC1OC2OC3C(OCC(O)C3O)OC(=O)[C@]34CCC(C)(C)CC3C3=CCC5[C@@]6(C)C[C@H](O)[C@H](OC7OC(CO)C(O)C(O)C7OC7OCC(OC(=O)CC(C)(O)CC(=O)OC1C(OC1OC(CO)C(O)C(O)C1O)C2O)C(O)C7O)[C@@](C)(CO)C6CC[C@@]5(C)[C@]3(C)CC4 (stereo partly drawn) ?
20.3 µM

What do we get for O=[N+]([O-])c1ccc(C(Nc2ccccc2)c2ccc3cccnc3c2O)cc1 (stereo not drawn) ?
> 100 µM

###

Tested on: OVCAR-3 ovarian
assay name: NCI tumour cell line growth inhibition, 48 h
Below is a list of entries, each paired with its recorded TGI value.

Worked set:
COc1ccc2nc3ccccc3c(NCCCCN(C)CCCl)c2c1
0.712 µM
CCOP(=O)(OCC)/C(C#N)=C/c1cccn1Cc1ccccc1
> 100 µM
CN1C(=O)C(O)CC1c1cccc(C(F)(F)F)c1 (stereo not given)
> 100 µM
COC(=O)C1=C(O)C(C(=O)OC)[C@]2(O)[C@H](C(=O)OC)[C@H]1C[C@@H](c1ccc([N+](=O)[O-])cc1)[C@H]2C(=O)OC (stereo not given in full)
> 100 µM
CCCCCCCCCCCCOP(N)(=O)OCCCCCCCCCCCC
> 100 µM

What TGI value was documented for this molecule, `O=C(Nc1ccccc1C(=O)N/N=C(\c1ccccc1)c1ccccn1)c1ccc(F)cc1` ?
> 100 µM

What do we get for `O=c1[nH]c2ccccc2n1-c1n[nH]c2ccccc12` ?
> 100 µM

What do we get for `O=C(Cc1ccccc1)NN1C(=O)/C(=C\c2ccc(O)cc2)SC1=Nc1ccccc1` ?
> 100 µM

What do we get for `Cc1cc(Cl)ccc1NS(=O)(=O)c1ccc(-c2cnc(C3CC3)o2)cc1` ?
5.41 µM

What do we get for `COC(=O)c1c(-c2ccc(Cl)cc2)cc2c3ccccc3n(C)c2c1C(=O)OC` ?
> 100 µM
